Reference for the values: ChEMBL document CHEMBL1127184

test system: Mus musculus; assay: Analgesic activity by writhing test in mice after peroral administration; type: functional; conditions: po
MEASURED_ATTRIBUTE: ED50
Form field: result (number plus unit)

Measured ED50, CN(C)CCOC(c1ccccc1)c1ccnn1C (racemic) [CIZOLIRTINE] : 56 mg/kg

Measured ED50, CN(C)CCO[C@@H](c1ccccc1)c1ccnn1C : 67 mg/kg

Measured ED50, CN(C)CCO[C@H](c1ccccc1)c1ccnn1C : 37 mg/kg

Measured ED50, O=C([O-])Cc1ccccc1Nc1c(Cl)cccc1Cl.[Na+] [DICLOFENAC SODIUM] : 87 mg/kg
